# test-method-notes: Components of the Cytosolic LPS Sensing Pathway: Gene Identification via Genome-wide siRNA Screen;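 also: robust z of the log signal after scaling to non-targeting control siRNA wells of the plate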
# condition-info: RAW264.7 macrophages, IL-1a HTRF, actives lie on both sides, screened at 100 nM (by protocol), cells primed 5 h with Pam3CSK4 first
Out of some 53,000 sequences screened, about 3,700 (7%) were called active.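 The calls were made as follows: active = gene knockdowns whose robust z-score for IL-1 alpha signal is at least 2 or at most -2, so actives lie on both sides; inactive = the rest.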 The entries come from a sample that favours actives as a whole.
I would appreciate it if you answered using one of these outcomes: true (1) (active), false (0) (inactive)

Example entries begin here.
sequence-text	class-label
GGUAUGUCUAAGAAAACCATT against Pi4ka	false (0)
CGUGGUGAACGAGAUUGAUTT against Kcnab1	false (0)

Consider the record given below.
Request: Could you kindly confirm the outcome this assay logged for CCACUGCACUGUAAAUCAATT against Glrx5 ?
Response: false (0)
